biological target: FAK protein (Homo sapiens, UniProt Q05397); assay: FAK kinase inhibitory activity, mobility shift assay (MSA, Carna Biosciences); type: biochemical; parameters: GST (N); purchased Carna Biosciences, Inc; host or cells: baculovirus expression system; conditions: inhibition rate at 30 nM; reaction time 5 hours
Sequence (Q05397 376-1052): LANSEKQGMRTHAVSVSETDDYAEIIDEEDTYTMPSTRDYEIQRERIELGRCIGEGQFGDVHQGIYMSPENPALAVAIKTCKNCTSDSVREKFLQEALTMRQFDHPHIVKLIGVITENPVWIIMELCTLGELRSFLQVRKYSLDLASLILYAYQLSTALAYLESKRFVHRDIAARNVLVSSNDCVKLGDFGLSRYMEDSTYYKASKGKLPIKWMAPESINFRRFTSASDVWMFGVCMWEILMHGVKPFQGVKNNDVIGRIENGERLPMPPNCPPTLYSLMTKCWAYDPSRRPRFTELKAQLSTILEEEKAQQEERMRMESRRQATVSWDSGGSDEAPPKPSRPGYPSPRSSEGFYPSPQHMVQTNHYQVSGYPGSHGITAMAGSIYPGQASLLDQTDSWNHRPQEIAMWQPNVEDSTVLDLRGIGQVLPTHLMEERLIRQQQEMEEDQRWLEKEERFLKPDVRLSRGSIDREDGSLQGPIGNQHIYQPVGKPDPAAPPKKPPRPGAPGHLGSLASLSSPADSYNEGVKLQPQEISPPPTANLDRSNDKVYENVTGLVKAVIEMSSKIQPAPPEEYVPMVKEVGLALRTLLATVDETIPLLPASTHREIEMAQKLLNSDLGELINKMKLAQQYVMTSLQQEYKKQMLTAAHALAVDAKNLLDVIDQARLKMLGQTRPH
# maps each entry to its inhibition at 0.03 µM

# count of solved cases: 2
INSERT INTO assay_data (compound, readout_name, value) VALUES
  ('COC[C@H]1CN[C@H](C)CN1CC(=O)N1CC(C)(C)c2ncc(Cc3cccc(OCCN4CCN(CCOCCOCCOCCOCC(=O)Nc5ccc(Nc6ncc(C(F)(F)F)c(NCc7cccc(S(C)(=O)=O)c7)n6)cc5)CC4)c3)cc21 [Example 128]', 'inhibition at 0.03 µM', '50 to 75%'),
  ('COC[C@H]1CN[C@H](C)CN1CC(=O)N1CC(C)(C)c2ncc(Cc3ccccc3OCCN3CCN(CCOCCOCCOCC(=O)Nc4ccc(Nc5ncc(C(F)(F)F)c(NCc6cccc(S(C)(=O)=O)c6)n5)cc4)CC3)cc21 [Example 122]', 'inhibition at 0.03 µM', '50 to 75%');

Here's the next entry for you.
// returns reported inhibition at 0.03 µM for input COC[C@H]1CN[C@H](C)CN1CC(=O)N1CC(C)(C)c2nc(CN3CCN(CCOCC(=O)Nc4ccc(Nc5ncc(C(F)(F)F)c(NCc6cccc(S(C)(=O)=O)c6)n5)cc4)CC3)c(Cc3ccc(F)cc3)cc21 [Example 115]
≥ 75%
